Assign Population Membrane Permeable-Phenotype (%) to each entry below.
System: U2OS
protocolDetails: Multiplex assay against U2OS
Type: toxicity, cell-based
reportedConditions: human, 48 h, 1 µM, compound concentration 1 uM
Supply the numeric figure in %, leaving out any unit text.

Query: Population Membrane Permeable-Phenotype (%); subject: `COc1cc(NC(=O)CCN2CCC(OC(=O)Nc3ccccc3-c3ccccc3)CC2)c(Cl)cc1CNC[C@H](O)c1ccc(O)c2[nH]c(=O)ccc12`
3

Tell me the measured Population Membrane Permeable-Phenotype (%) of `CCc1cc2cc(NS(=O)(=O)c3ccc(C#N)cc3)ccc2n(CC)c1=O` , please.
6

Population Membrane Permeable-Phenotype (%) for `C[C@H](NC(=O)c1c(C(F)F)nn(C)c1Oc1cccc(C(F)(F)F)c1)c1ccc(C(=O)O)cc1` ?
3

Fill in the blank: the reported Population Membrane Permeable-Phenotype (%) of `Cc1nc2ccc(Oc3ccc(F)cc3)cc2c(=O)n1C[C@H]1CCCN(C(C)C)C1.Cl` is ____.
7

====

Test system: U2OS
protocolDetails: Multiplex assay against U2OS
Type: toxicity, cell-based
reportedConditions: human, 12 h, 10 µM, compound concentration 10 uM
Please respond with reported Population Hoechst High Intensity Objects (%) for every item in the list.
Write it as a number; the unit % goes unstated.

What does the record list as Population Hoechst High Intensity Objects (%) for CN1[C@@H](CC(=O)c2ccccc2)CCC[C@H]1C[C@H](O)c1ccccc1.Cl [LOBELINE HYDROCHLORIDE] ?
0

Any idea what Population Hoechst High Intensity Objects (%) was measured for COc1ccc(CC(=O)NC(N/C(=N/C#N)Nc2cccc3ncccc23)C(C)(C)C)cc1OC (stereo not given) ?
0

Which Population Hoechst High Intensity Objects (%) value belongs to `Cc1cc(NC(=O)NCCN2CCC(O)(Cc3ccccc3)CC2)c2ccccc2n1` ?
3

Quick check: Population Hoechst High Intensity Objects (%) of `Cc1ccc(-c2c(C(=O)CF)n(CCCO)c3ncnc(N)c23)cc1` ?
0

Which Population Hoechst High Intensity Objects (%) is listed for `CCn1c(-c2ccncc2)cc2c1CCNC2=O` ?
0

====

Test system: U2OS
protocolDetails: Multiplex assay against U2OS
Assay type: toxicity, cell-based
reportedConditions: human, 48 h, 1 µM, compound concentration 1 uM
reportedProperty: Population Fragmented Nuclei (%)
Report the figure in % without appending any unit label.

Look up Population Fragmented Nuclei (%): `CC[C@@H](C)Nc1nc(C)nc2c(-c3ccc(OC)nc3C)c(C)nn12`
16

Which value of Population Fragmented Nuclei (%) has been reported for `C[C@H](NC(=O)c1c(C(F)F)nn(C)c1Oc1cccc(C(F)(F)F)c1)c1ccc(C(=O)O)cc1` in the records?
15

Entry `Cc1nc2ccc(Oc3ccc(F)cc3)cc2c(=O)n1C[C@H]1CCCN(C(C)C)C1.Cl` : reported Population Fragmented Nuclei (%) = ?
19

Need Population Fragmented Nuclei (%), item `Cc1ccc(/C(=C\CN2CCCC2)c2ccccn2)cc1`
17

Which Population Fragmented Nuclei (%) reading was recorded for the compound `C=CCN1C[C@H](C(=O)N(CCCN(C)C)C(=O)NCC)C[C@@H]2c3cccc4[nH]cc(c34)C[C@H]21` ?
13

# query: Population Fragmented Nuclei (%) of entry `COC(c1ccccc1)(c1ccccc1)[C@H](Oc1nc(C)cc(C)n1)C(=O)O`
17

====

System: U2OS
protocolDetails: Multiplex assay against U2OS
Assay type: toxicity, cell-based
reportedConditions: human, 48 h, 1 µM, compound concentration 1 uM
reportedProperty: Population Pyknosed Nuclei (%)
Kindly answer with a numeric value in %, unit omitted.

Would you mind telling me what Population Pyknosed Nuclei (%) value was observed for `CCCCC[C@H](O)/C=C/[C@H]1[C@H](O)CC(=O)[C@@H]1CCCCCCC(=O)O` ?
9

Could you share which Population Pyknosed Nuclei (%) value was measured for Cl.N=C(N)NC(=O)Cc1c(Cl)cccc1Cl [GUANFACINE HYDROCHLORIDE] ?
10

Population Pyknosed Nuclei (%) lookup needed for `O=C(NCC(=O)N1CC[C@H](N[C@H]2CC[C@@](O)(c3ccc(-c4ncccn4)cn3)CC2)C1)c1cccc(C(F)(F)F)c1` , thanks.
11

Would you kindly share the measured Population Pyknosed Nuclei (%) for `COc1ccc2c(c1OCc1ccccc1)C[C@@H](C(=O)O)N(C(=O)C(c1ccccc1)c1ccccc1)C2` ?
7

Please give the measured Population Pyknosed Nuclei (%) for this compound: `Oc1c(CN2CCN(c3ccccn3)CC2)cc(Cl)c2cccnc12`
7

====

Test system: U2OS
protocolDetails: Multiplex assay against U2OS
Format: toxicity, cell-based
reportedConditions: human, 48 h, 10 µM, compound concentration 10 uM
reportedProperty: Population Pyknosed Nuclei (%)
Write the numeric value and follow it with the unit.

Look up Population Pyknosed Nuclei (%) with U2OS for this molecule: `C[C@H](NC(=O)CNC(=O)c1cccc(Cl)c1)c1ccccc1`
7%

Under U2OS: Population Pyknosed Nuclei (%) value of Cc1ccc(/C(=C\CN2CCCC2)c2ccccn2)cc1 [TRIPROLIDINE] ?
9%

Form: Entry = CC[C@@H](C)Nc1nc(C)nc2c(-c3ccc(OC)nc3C)c(C)nn12 [PEXACERFONT] | System = U2OS | Population Pyknosed Nuclei (%) = ____
8%

U2OS / Population Pyknosed Nuclei (%) / `Cn1cc(C(=O)OCC2CCN(CCNS(C)(=O)=O)CC2)c2ccccc21` : value?
10%

Please provide the recorded Population Pyknosed Nuclei (%) for CCCCC[C@H](O)/C=C/[C@H]1[C@H](O)CC(=O)[C@@H]1CCCCCCC(=O)O [ALPROSTADIL] , tested on U2OS.
10%

Find Population Pyknosed Nuclei (%) (U2OS) for the entry COc1cc2nc(N3CCN(C(=O)c4ccco4)CC3)nc(N)c2cc1OC.Cl [PRAZOSIN HYDROCHLORIDE]
8%

====

Test system: HEK-293T
protocolDetails: Multiplex assay against HEK293T
Format: toxicity, cell-based
reportedConditions: human, 12 h, 1 µM, compound concentration 1 uM
Please go through the items and note down their Population Normal (%).
// return numeric value only (unit: %, not printed)

Data request, read-out Population Normal (%), for `COc1cc(OC2CCN(C(C)=O)CC2)ccc1C(=O)N1CCC(N2C(=O)OCc3ccccc32)CC1`
92

// Population Normal (%) lookup, key: `CCC(=N\O)/C(C)=C/c1ccc(F)cc1`
100

Which Population Normal (%) reading was recorded for the molecule `O=C(O)C(F)(F)F.O=C1NC(=O)/C(=C/c2c[nH]c(=O)c(-c3ccc(N4CCNCC4)nc3)c2)S1` ?
100

Query: Population Normal (%); subject: `Oc1c(CN2CCN(c3ccccn3)CC2)cc(Cl)c2cccnc12`
92

Request the reported Population Normal (%) associated with CCCCCN1C(=O)C2(COc3cc4c(cc32)OCO4)c2ccccc21 (stereo not given)
100

====

Please provide measured Population Normal (%) for the entries that follow.
Tested on: U2OS
protocolDetails: Multiplex assay against U2OS
Assay type: toxicity, cell-based
reportedConditions: human, 24 h, 1 µM, compound concentration 1 uM

Value lookup for Population Normal (%); key = CC(C)(c1ccc(O)cc1)c1ccc(O)cc1 [BISPHENOL A]
100%

Given the entry `NC1=NC(=O)/C(=C2\CCNC(=O)c3[nH]c4ccccc4c32)N1` , report its measured Population Normal (%).
100%

Param item = `COc1cc(N2CCN(C)CC2)ccc1Nc1nccc(-c2cn(C)c3cnccc23)n1` ; retrieve measured Population Normal (%).
100%

Which value of Population Normal (%) has been reported for `CCn1c(-c2ccncc2)cc2c1CCNC2=O` in the records?
100%

I have this compound here, `CCOC(=O)c1c(/C(C#N)=C\N)c2ccc(Cl)c(Cl)c2n1C` , and I need its recorded Population Normal (%).
100%

Which Population Normal (%) value is on record for `C[C@H](NC(=O)CNC(=O)c1cccc(Cl)c1)c1ccccc1` ?
97%

What does the data say about its Population Normal (%)? Entry: Cc1cc(NC(=O)NCCN2CCC(O)(Cc3ccccc3)CC2)c2ccccc2n1 [PALOSURAN]
98%

Bench note: what Population Normal (%) did Cc1cc(C(C#N)c2ccc(Cl)cc2)c(Cl)cc1NC(=O)c1cc(I)cc(I)c1O (stereo unspecified) [CLOSANTEL] show?
100%

Form field: reported Population Normal (%) of Cc1c(C(=O)NCCCN(C)C)sc2ncnc(Nc3ccc(F)cc3OC(C)CF)c12 (stereo unspecified)
100%

State the recorded Population Normal (%) for this entry: `COc1cc(OC2CCN(C(C)=O)CC2)ccc1C(=O)N1CCC(N2C(=O)OCc3ccccc32)CC1`
98%

Please look up its Population Normal (%): COc1ccc(CC(=O)NC(N/C(=N/C#N)Nc2cccc3ncccc23)C(C)(C)C)cc1OC (stereo unspecified)
100%

Name the reported Population Normal (%) value associated with the compound CC(C)[C@H](C(=O)Nc1ccc(C(=O)NO)cc1)c1ccccc1 [AR-42]
100%

// lookup Population Normal (%) for CC(N)C1CCC(C(=O)Nc2ccncc2)CC1 (stereo unspecified)
100%

Population Normal (%) lookup needed for `Cc1c(-c2cc(-c3ccccc3Cl)no2)cnn1C1CCNCC1.Cl` , thanks.
100%

Fill blank: measured Population Normal (%) of the compound `O=C(O)C(F)(F)F.O=C1NC(=O)/C(=C/c2c[nH]c(=O)c(-c3ccc(N4CCNCC4)nc3)c2)S1` is ____.
100%

Dear colleague, I am looking for the recorded Population Normal (%) of the following compound: COC(=O)C1=C(C)NC(C)=C(C(=O)OC(C)C)C1c1cccc2nonc12 (stereo unspecified) [ISRADIPINE]
100%

For the compound CC[C@@H](C)Nc1nc(C)nc2c(-c3ccc(OC)nc3C)c(C)nn12 [PEXACERFONT] , what Population Normal (%) is on record?
97%

Would you kindly share the measured Population Normal (%) for COC(c1ccccc1)(c1ccccc1)[C@H](Oc1nc(C)cc(C)n1)C(=O)O [AMBRISENTAN] ?
99%

Name the reported Population Normal (%) value associated with the compound O=C(Nc1c[nH]nc1-c1nc2cc(CN3CCOCC3)ccc2[nH]1)NC1CC1 [AT-9283]
100%

Suppose we examine the compound `Oc1c(CN2CCN(c3ccccn3)CC2)cc(Cl)c2cccnc12` ; what Population Normal (%) value has been reported?
98%

Param item = CN1[C@@H](CC(=O)c2ccccc2)CCC[C@H]1C[C@H](O)c1ccccc1.Cl [LOBELINE HYDROCHLORIDE] ; retrieve measured Population Normal (%).
100%

Quick one: Population Normal (%) of CCC(=N\O)/C(C)=C/c1ccc(F)cc1 [A-079] ?
100%

For CC(C)(C)c1cc(C(C)(C)C)c(NC(=O)c2c[nH]c3ccccc3c2=O)cc1O [IVACAFTOR] , what is its reported Population Normal (%)?
100%

Which Population Normal (%) is listed for CCCCCN1C(=O)C2(COc3cc4c(cc32)OCO4)c2ccccc21 (stereo unspecified) ?
100%

Which measured Population Normal (%) value corresponds to `Cc1ccc(-c2c(C(=O)CF)n(CCCO)c3ncnc(N)c23)cc1` ?
100%

Which Population Normal (%) is reported for this compound? `Cc1cnc(-c2cc(N3CCN(C(=O)CCS(C)(=O)=O)CC3)ncc2Cl)c(C)c1`
97%
